Test: Toxicity liver stage against HepG2, at 10uM
Assay type: cell-based
Parameters: test concentration 10 uM, cell line HepG2-A16-CD81EGFP
Conditions: human, HepG2-A16-CD81EGFP cells; read-out: INHIBITION
QUANTITY_MEASURED: cytotoxicity at 10 µM (%)
Give the value in % but do not write % after it.

molecule=Cc1cc(=O)[nH]c(NCCNC(=O)c2ccccc2N2CCCC2)n1 observed_value=0.998
molecule=Cc1noc([C@@]23CCO[C@@H]2CCN(C(=O)c2cc(C)c(C)s2)C3)n1 observed_value=8.73
molecule="CC(C)(C)C(=O)N1CCC2(CNS(=O)(=O)c3cnccc3O2)C1 (stereo not drawn)" observed_value=10.2
molecule="CS(=O)(=O)N1CCCCC12CCN(C(=O)c1ccccc1)C2 (stereo not drawn)" observed_value=-148
molecule=Cc1ccoc1C(=O)N1C[C@@H](OCC2CCOCC2)[C@H]2OCCC[C@H]21 observed_value=4.11
molecule="CC(O)CN1CCN(C(=O)c2cccn2Cc2ccncc2)CC1 (stereo not drawn)" observed_value=-10.9
molecule=CN1C[C@@H]2CN(C(=O)C3CC=CC3)C[C@@H]2C1=O observed_value=-114
molecule="CN(Cc1ccc([S+](C)[O-])cc1)c1ccc(Cl)cn1 (stereo not drawn)" observed_value=8.97
molecule=O=C1CC2(CCN(Cc3ccc(-c4ccn[nH]4)s3)CC2)CN1 observed_value=-137
molecule="CC(=O)N1CCC1c1cc(NC2CCOCC2)nc(C)n1 (stereo not drawn)" observed_value=1.79

Q: Indicate the recorded cytotoxicity at 10 µM value for this molecule: O=C(CCCn1cccn1)N1CCCC(n2cncn2)C1 (stereo not drawn)
Ans: 6.61

Q: Provide measured cytotoxicity at 10 µM value, entry: CN1C(=O)CC(C(=O)O)C12CCN(Cc1ccc(Cl)cc1F)CC2 (stereo not drawn)
Ans: -7.82

Q: Answer with the recorded cytotoxicity at 10 µM for the molecule listed here: CC(C)(C)OC(=O)N1CCn2c(nnc2C2CCCNC2)C1 (stereo not drawn)
Ans: -1.58

Q: Name the recorded cytotoxicity at 10 µM of the item Cc1cc(C(F)(F)F)cc(N2CCN(Cc3ccccc3)CC(O)C2)n1 (stereo not drawn) in your answer.
Ans: 0.165

Q: Tell me measured cytotoxicity at 10 µM for O=C(NCCNC(=O)C1CCN(CC(F)(F)F)CC1)c1ccoc1 please.
Ans: 5.09

Q: Give the value of cytotoxicity at 10 µM reported for the following: Cc1cc(C)n2cc(CN3CCC(N4CCN(C)C4=O)CC3)nc2n1
Ans: 3.66

Q: Report measured cytotoxicity at 10 µM; entry is CN(Cc1cccc2ncccc12)C(=O)CCC(F)(F)F
Ans: -3.05

Q: Quote cytotoxicity at 10 µM reported for CCOc1cc(C(=O)N2CCCC(c3noc(C)n3)C2)ccc1OC (stereo not drawn) please.
Ans: -3.33

Q: Supply cytotoxicity at 10 µM value. Item: CC(C(=O)NN1CCOCC1)n1nc(C(F)(F)F)c(Cl)c1C1CC1 (stereo not drawn)
Ans: -0.37

Q: Consider the molecule CO[C@@H]1CC[C@@H](NC(=O)CCc2ccc(Cl)cc2)[C@H]1O . State its measured cytotoxicity at 10 µM.
Ans: 3.84

* * *

Test: Toxicity liver stage against HepG2, at 10uM
Format: cell-based
Design: test concentration 10 uM, cell line HepG2-A16-CD81EGFP
Conditions: human, HepG2-A16-CD81EGFP cells; read-out: INHIBITION
The entries below are paired with their reported cytotoxicity at 10 µM.
Answer in %, number only, no unit symbol.

The following compounds have reported results that may help.
compound=CCNc1ccnc(NC2CCN(C(=O)c3ccc(C)cc3)CC2)n1 quantity_measured="cytotoxicity at 10 µM" observed_value=5.09
compound="CC(C)N1CCN(C)CC(Cc2cc(N(C)C)ncn2)C1 (stereo unspecified)" quantity_measured="cytotoxicity at 10 µM" observed_value=9.25
compound=OCCN(Cc1nc(-c2ccc3c(c2)OCO3)no1)CC1CC1 quantity_measured="cytotoxicity at 10 µM" observed_value=8.37
compound=COCCN1CCN(Cc2ccncc2)c2ncccc2C1 quantity_measured="cytotoxicity at 10 µM" observed_value=-70.9
compound=CC(C)CS(=O)(=O)Nc1ccc([C@H]2OCC(=O)N[C@@H]2CO)cc1 quantity_measured="cytotoxicity at 10 µM" observed_value=2.79

From here, focus on the item given below.
Q: Return value of cytotoxicity at 10 µM for input CCc1nc(C2CCCN(c3nccc(N4CCCC4)n3)C2)no1 (stereo unspecified) , no commentary.
Ans: 19

* * *

Test: Toxicity liver stage against HepG2, at 10uM
Type: cell-based
Set-up: test concentration 10 uM, cell line HepG2-A16-CD81EGFP
Conditions: human, HepG2-A16-CD81EGFP cells; read-out: INHIBITION
Catalogue of compounds with associated cytotoxicity at 10 µM
Note: unit % is implicit; provide only the numeric part.

Solved entries (count: 5):
compound="Cc1cc(C(=O)N2CCCC2)ccc1NCC(=O)N1CCCCC1C (configuration not stated)" result_unit=% observed_value=5.12
compound="CCNC(=O)NCC(CC)(OC)c1ccccc1 (configuration not stated)" result_unit=% observed_value=2.05
compound=O=C(CCc1cc2n(n1)CCCNC2)N1CCSCC1 result_unit=% observed_value=8.55
compound=CCN(CC)C(=O)Cn1cc(-c2nc(-c3ccccc3C)no2)nn1 result_unit=% observed_value=-2.46
compound=Cc1cc(C(=O)N2Cc3ccccc3OC3(CCOCC3)C2)nc(N)n1 result_unit=% observed_value=-0.928

Q: Please report cytotoxicity at 10 µM for the following compound: CCOCC(=O)N1CCC(Oc2ccc(C(F)(F)F)cn2)CC1
Ans: 11.7

Q: Please report the measured cytotoxicity at 10 µM for Cc1ccc(C)c(-n2ncc(C(=O)N(C)CCc3ccccn3)c2N)c1
Ans: -1.57

Q: For CCN1CCCC1CNC(=O)Cc1c(-c2ccc(Cl)cc2)n[nH]c1C (configuration not stated) , write its cytotoxicity at 10 µM.
Ans: -5.4

Q: Hello, please tell me recorded cytotoxicity at 10 µM for this one: COc1ccccc1CCNC(=O)CNC1CCc2nc(C)nn2C1 (configuration not stated)
Ans: -12.3

* * *

Test: Toxicity liver stage against HepG2, at 10uM
Type: cell-based
Design: test concentration 10 uM, cell line HepG2-A16-CD81EGFP
Conditions: human, HepG2-A16-CD81EGFP cells; read-out: INHIBITION
QUANTITY_MEASURED: cytotoxicity at 10 µM (%)
Report the figure in % without appending any unit label.

compound="Cc1cc(C)n(CC2CCCCN2C(=O)c2ccc3nncn3c2)n1 (stereo unspecified)" observed_value=0.168
compound=O=C(Cn1cc(-c2ccccc2)ncc1=O)Nc1nnc[nH]1 observed_value=20.3
compound="COC(=O)N1CCc2ccccc2C1C(=O)NCc1cccs1 (stereo unspecified)" observed_value=-0.634
compound=NC(=O)COc1ccc(CNCc2ccc(F)cc2F)cc1 observed_value=-14.4
compound=COc1ccc(CN(C)c2nc3c(cnn3C)c(=O)[nH]2)c(OC)c1 observed_value=58.9

Continue with the compound presented below.
Q: Return reported cytotoxicity at 10 µM. Input compound: CC(C)C(C(=O)N(C)C)c1cccc(Cl)c1 (stereo unspecified)
Ans: 6.14

* * *

The following compounds are listed with their measured cytotoxicity at 10 µM values.
Experiment: Toxicity liver stage against HepG2, at 10uM
Assay type: cell-based
Set-up: test concentration 10 uM, cell line HepG2-A16-CD81EGFP
Conditions: human, HepG2-A16-CD81EGFP cells; read-out: INHIBITION
# output: bare number, implied unit %

Please review the following examples before continuing.
compound=CNC(=O)COc1cccc(CNC(=O)c2c(C)noc2C)c1 quantity_measured="cytotoxicity at 10 µM" result_unit=% observed_value=-4.93
compound=Cc1ccc2c(n1)N(Cc1cccnc1)CCN(Cc1cnn(C)c1)C2 quantity_measured="cytotoxicity at 10 µM" result_unit=% observed_value=9.12
compound=Cc1cc(NC(=O)NCCc2ccc3c(c2)OCCO3)n(C)n1 quantity_measured="cytotoxicity at 10 µM" result_unit=% observed_value=-0.838

Q: Quote cytotoxicity at 10 µM reported for O=C(NC1CC1)N1C[C@H]2CN(Cc3cccc(F)c3)C(=O)[C@H]2C1 please.
Ans: -70.5

Q: Assign cytotoxicity at 10 µM to the following record: O=C(c1c[nH]c(=O)[nH]c1=O)N1CCCC(c2nccn2CC2CCC2)C1 (stereo not drawn)
Ans: -3.67

* * *

Assay: Toxicity liver stage against HepG2, at 10uM
Format: cell-based
Design: test concentration 10 uM, cell line HepG2-A16-CD81EGFP
Conditions: human, HepG2-A16-CD81EGFP cells; read-out: INHIBITION
Reported cytotoxicity at 10 µM values for a set of molecules
Reply with just the number (in %).

molecule="COc1ccc(C(=O)C2CCCN(CCCn3cccn3)C2)c(OC)c1 (configuration not stated)" quantity_measured="cytotoxicity at 10 µM" observed_value=-12.2
molecule=Cc1nc(NS(=O)(=O)c2cccc(F)c2C)no1 quantity_measured="cytotoxicity at 10 µM" observed_value=5.3
molecule=O[C@H]1CCN(CC2CC2)[C@H]1Cc1ccncc1 quantity_measured="cytotoxicity at 10 µM" observed_value=0.165
molecule="Cc1cnn(CC(C)NCc2cccc(C#N)c2)c1 (configuration not stated)" quantity_measured="cytotoxicity at 10 µM" observed_value=-2.62

Q: Given CCc1n[nH]c(C2CN(C(=O)c3cc(C4CC4)on3)CCO2)n1 (configuration not stated) , respond with its cytotoxicity at 10 µM.
Ans: -6.43

Q: Quick one: give measured cytotoxicity at 10 µM for COC(=O)CN(C(=O)c1cccc(F)c1Cl)c1cccc(C)n1
Ans: 9.5
